Where do these numbers come from? They come from patent US11566007B2.

Hi there, I'd appreciate the recorded pIC50 for every entry that follows.
system under test: K-Ras G12C (Homo sapiens (Human), UniProt P01116+P62937, G12C)
Sequence (P01116-2 other isoform, or with tags, fused parts or gaps G12C): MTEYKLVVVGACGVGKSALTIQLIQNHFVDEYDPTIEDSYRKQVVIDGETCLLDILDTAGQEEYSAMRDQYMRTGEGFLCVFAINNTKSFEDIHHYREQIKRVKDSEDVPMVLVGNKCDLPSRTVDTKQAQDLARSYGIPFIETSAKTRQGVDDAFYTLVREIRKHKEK
Sequence (P62937 whole entry): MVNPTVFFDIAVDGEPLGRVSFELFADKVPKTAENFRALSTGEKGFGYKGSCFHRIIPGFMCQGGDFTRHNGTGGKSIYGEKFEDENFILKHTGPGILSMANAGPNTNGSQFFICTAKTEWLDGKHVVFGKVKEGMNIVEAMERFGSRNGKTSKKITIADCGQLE
protocol description: Ras-Raf (BRAF RBD) disruption / FRET / MOA assay, KRAS G12C
Type: biochemical
condition details: KRAS G12C; Ras-Raf disruption/FRET/MOA assay; read-out: IC50* KRAS G12C FRET data
pIC50: −log10 of the molar value.

Q: Given the compound C=CC(=O)N1CC[C@H](C(=O)N(C)[C@H](C(=O)N[C@H]2Cc3cccc(c3)-c3ccc4c(c3)c(c(-c3cccnc3[C@H](C)OC)n4CC(F)(F)F)CC(C)(C)COC(=O)[C@@H]3CCCN(N3)C2=O)C(C)C)C1 (atropisomer, axis not shown) , what is its reported pIC50?
Result: 7.00 to 8.00

Q: Please answer likewise for C=CC(=O)N1CCN(C(=O)N(C)[C@H](C(=O)N[C@H]2Cc3nc(cs3)-c3ccc4c(c3)c(c(-c3cccnc3[C@H](C)OC)n4CC)CC(C)(C)COC(=O)[C@@H]3CCCN(N3)C2=O)C(C)C)C[C@@H]1C (atropisomer, axis not shown)
Result: 7.00 to 8.00

Q: Please answer likewise for CCn1c(-c2cccnc2COC)c2c3cc(ccc31)-c1cc(O)cc(c1)C[C@H](NC(=O)[C@H](C(C)C)N(C)C(=O)c1ccc(NC(=O)/C=C/CN(C)C)cn1)C(=O)N1CCC[C@H](N1)C(=O)OCC(C)(C)C2
Result: 7.00 to 8.00

Q: Please answer likewise for CCn1c(-c2cccnc2[C@H](C)OC)c2c3cc(ccc31)-c1cccc(c1)C[C@H](NC(=O)[C@H](C(C)C)N(C)C(=O)[C@H]1CCN(C(=O)C#C[C@@H]3COCCN3C)C1)C(=O)N1CCC[C@H](N1)C(=O)OCC(C)(C)C2
Result: 7.00 to 8.00

Q: Please answer likewise for C=CC(=O)N1CC[C@H](C(=O)N(C)[C@H](C(=O)N[C@H]2Cc3cccc(c3)-c3ccc4c(c3)c(c(-c3cccnc3[C@H](C)OC)n4CC)CC(C)(C)COC(=O)[C@@H]3CCCN(N3)C2=O)C2CCC2)C1 (atropisomer, axis not shown)
Result: 6.00 to 7.00

---

Hi there, I'd appreciate the recorded IC50 for every entry that follows.
system under test: K-Ras G13C (Homo sapiens (Human), UniProt P01116+P62937, G13C)
Sequence (P01116-2 other isoform, or with tags, fused parts or gaps G13C): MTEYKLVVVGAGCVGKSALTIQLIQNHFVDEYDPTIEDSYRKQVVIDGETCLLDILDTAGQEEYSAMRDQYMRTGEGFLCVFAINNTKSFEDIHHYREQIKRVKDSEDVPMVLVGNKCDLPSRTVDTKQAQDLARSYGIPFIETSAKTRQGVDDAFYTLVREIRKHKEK
Sequence (P62937 whole entry): as the sequence (P62937 whole entry) above
protocol description: Ras-Raf (BRAF RBD) disruption / FRET / MOA assay, KRAS G13C
Format: biochemical
condition details: KRAS G13C; Ras-Raf disruption/FRET/MOA assay; read-out: IC50* KRAS G13C FRET data

Q: Given the compound C=CC(=O)N1CC[C@H](C(=O)N(C)[C@H](C(=O)N[C@H]2C[C@H]3CN(CCO3)c3ccc4c(c3)c(c(-c3cccnc3[C@H](C)OC)n4CC)CC(C)(C)COC(=O)[C@@H]3CCCN(N3)C2=O)C(C)C)C1 (atropisomer, axis not shown) , what is its reported IC50?
Result: 1 to 10 µM

Q: Please answer likewise for C=CC(=O)N1CC[C@H](C(=O)N(C)[C@H](C(=O)N[C@@H]2C(=O)N3CCC[C@H](N3)C(=O)OCC(C)(C)Cc3c(-c4cncnc4)n(CC)c4ccc(cc34)-c3cccc(c3)[C@@H]2OC)C(C)C)C1
Result: > 10 µM

Q: Please answer likewise for CO[C@@H](C)c1ncccc1-c1c2c3cc(ccc3n1CC(F)(F)F)-c1nc(nn1C)C[C@H](NC(=O)[C@H](C(C)C)N(C)C(=O)C1(F)CCN(C(=O)C#CC(C)(C)N(C)C)CC1)C(=O)N1CCC[C@H](N1)C(=O)OCC(C)(C)C2 (atropisomer, axis not shown)
Result: 0.01 to 0.1 µM

Q: Please answer likewise for C=CC(=O)N1CC[C@H](C(=O)N(C)[C@H](C(=O)N[C@H]2CN(C)C(=O)Cc3ccc4c(c3)c(c(-c3cccnc3COC)n4CC)CC(C)(C)COC(=O)[C@@H]3CCCN(N3)C2=O)C(C)C)C1
Result: > 10 µM

---

Hi there, I'd appreciate the recorded pIC50 for every entry that follows.
system under test: K-Ras G12C (Homo sapiens (Human), UniProt P01116+P62937, G12C)
protocol description: Ras-Raf (BRAF RBD) disruption / FRET / MOA assay, KRAS G12C
Type: biochemical
condition details: KRAS G12C; Ras-Raf disruption/FRET/MOA assay; read-out: IC50* KRAS G12C FRET data
pIC50: −log10 of the molar value.

Q: Given the compound C=CC(=O)Nc1cnc(C(=O)N(C)[C@H](C(=O)N[C@H]2Cc3cccc(c3)-c3ccc4c(c3)c(c(-c3cccnc3[C@H](C)OC)n4CC)CC(C)(C)COC(=O)[C@@H]3CCCN(N3)C2=O)C(C)C)n1C (atropisomer, axis not shown) [Example A525] , what is its reported pIC50?
Result: 7.00 to 8.00

Q: Please answer likewise for CCn1c(-c2cccnc2[C@H](C)OC)c2c3cc(ccc31)-c1nsc(n1)C[C@H](NC(=O)[C@H](C(C)C)N(C)C(=O)[C@H]1CCN(C(=O)C#CCN3CCOCC3)C1)C(=O)N1CCC[C@H](N1)C(=O)OCC(C)(C)C2 (atropisomer, axis not shown) [Example A201]
Result: 7.00 to 8.00

Q: Please answer likewise for CCn1c(-c2cccnc2[C@H](C)OC)c2c3cc(ccc31)-c1csc(n1)C[C@H](NC(=O)[C@H](C(C)C)N(C)C(=O)N1CCN(C(=O)C#CC(C)(C)N(C)C)CC1)C(=O)N1CCC[C@H](N1)C(=O)OCC(C)(C)C2 (atropisomer, axis not shown) [Example A479]
Result: > 8.00

Q: Please answer likewise for C=CC(=O)N1CC[C@H](C(=O)N(C)[C@H](C(=O)N[C@H]2Cc3nc(ns3)-c3ccc4c(c3)c(c(-c3cncnc3)n4CC)CC(C)(C)COC(=O)[C@@H]3CCCN(N3)C2=O)C(C)C)C1 [Example A285]
Result: < 5.00

Q: Please answer likewise for CO[C@@H](C)c1ncc(N2CCN(C)CC2)cc1-c1c2c3cc(ccc3n1CC(F)(F)F)-c1cccc(c1)C[C@H](NC(=O)[C@H](C(C)C)N(C)C(=O)C1(F)CCN(C(=O)C#CC(C)(C)N(C)C)CC1)C(=O)N1CCC[C@H](N1)C(=O)OCC(C)(C)C2 (atropisomer, axis not shown) [Example A542]
Result: > 8.00

Q: Please answer likewise for C=CC(=O)N1CCC2(CCN(C(=O)N(C)[C@H](C(=O)N[C@H]3Cc4cccc(c4)-c4ccc5c(c4)c(c(-c4cccnc4[C@H](C)OC)n5CC)CC(C)(C)COC(=O)[C@@H]4CCCN(N4)C3=O)C(C)C)CC2)C1 (atropisomer, axis not shown) [Example A554]
Result: 6.00 to 7.00

Q: Please answer likewise for CCn1c(-c2cccnc2COC)c2c3cc(ccc31)-c1cc(O)cc(c1)C[C@H](NC(=O)[C@@H](C(C)C)N(C)C(=O)[C@H]1C[C@@H](C)N(C(=O)C#CCN(C)C)C1)C(=O)N1CCC[C@H](N1)C(=O)OCC(C)(C)C2 [Example A165]
Result: 7.00 to 8.00

Q: Please answer likewise for C=CS(=O)(=O)N1CCC2(CCN([C@H](C(=O)N[C@H]3Cc4cc(O)cc(c4)-c4ccc5c(c4)c(c(-c4cccnc4[C@H](C)OC)n5CC)CC(C)(C)COC(=O)[C@@H]4CCCN(N4)C3=O)C(C)C)C2=O)CC1 (atropisomer, axis not shown) [Example A299]
Result: > 8.00

Q: Please answer likewise for CCn1c(-c2cccnc2[C@H](C)OC)c2c3cc(ccc31)-c1cc(F)cc(c1)C[C@H](NC(=O)[C@@H](COC1CN(C(=O)C#CC(C)(C)N(C)C)C1)C(C)C)C(=O)N1CCC[C@H](N1)C(=O)OCC(C)(C)C2 (atropisomer, axis not shown) [Example A403]
Result: > 8.00

Q: Please answer likewise for CCn1c(-c2cccnc2[C@H](C)OC)c2c3cc(ccc31)-c1cccc(c1)C[C@H](NC(=O)[C@H](C(C)C)N(C)C(=O)[C@H]1CCN(C(=O)/C=C/CN3CC(OC)C3)C1)C(=O)N1CCC[C@H](N1)C(=O)OCC(C)(C)C2 (atropisomer, axis not shown) [Example A203]
Result: 5.00 to 6.00

Q: Please answer likewise for C=CC(=O)N1CC[C@H](C(=O)N(C)[C@H](C(=O)N[C@H]2Cc3cc(O)cc(c3)-c3ccc4c(c3)c(c(-c3cc(CN(C)C)cnc3[C@H](C)OC)n4CC)CC(C)(C)COC(=O)[C@@H]3CCCN(N3)C2=O)C(C)C)C1 (atropisomer, axis not shown) [Example A536]
Result: 7.00 to 8.00

Q: Please answer likewise for C=CC(=O)N1CC[C@H](C(=O)N(C)[C@@H](C(=O)N[C@H]2Cc3cc(O)cc(c3)-c3ccc4c(c3)c(c(-c3cccc(CN(C)C)c3)n4CC)CC(C)(C)COC(=O)[C@@H]3CCCN(N3)C2=O)C(C)C)C1 [Example A106]
Result: 5.00 to 6.00

Q: Please answer likewise for C=CC(=O)N1CC[C@H](C(=O)N(C)[C@H](C(=O)N[C@H]2Cc3cccc(c3)-c3ccc4c(c3)c(c(-c3cccnc3[C@@H]3CCCO3)n4CC)CC(C)(C)COC(=O)[C@@H]3CCCN(N3)C2=O)C(C)C)C1 (atropisomer, axis not shown) [Example A512]
Result: 6.00 to 7.00

Q: Please answer likewise for C=CC(=O)C1CC[C@H](C(=O)N(C)[C@H](C(=O)N[C@H]2Cc3nsc(n3)-c3ccc4c(c3)c(c(-c3cccnc3[C@H](C)OC)n4CC)CC(C)(C)COC(=O)[C@@H]3CCCN(N3)C2=O)C(C)C)C1 (stereo partly drawn) [Example A694]
Result: 6.00 to 7.00

Q: Please answer likewise for C=CC(=O)N1CC[C@H](C(=O)N(C)[C@H](C(=O)N[C@H]2Cc3ncc(n3C)-c3ccc4c(c3)c(c(-c3cccnc3[C@H](C)OC)n4CC)CC(C)(C)COC(=O)[C@@H]3CCCN(N3)C2=O)C(C)C)C1 (atropisomer, axis not shown) [Example A276]
Result: 5.00 to 6.00
